- ASSAY_NOTES: BET inhibitor-based combinations targeting novel dependencies in MECOM-rearranged (r) AML: HNT-34 cell line (AID 2202234); further: nearly all actives have a fitted effect of over 35% in size; further: potency means the concentration at half of the fitted maximal effect
- MEASUREMENT_PARAMETERS: HNT-34 AML viability, CellTiter-Glo luminescence, 48 h; series mostly up to 46 µM
Results filed as inconclusive are left out. Calls of active or inactive are those of the source. The call rests on the fitted dose curve; in most records, active means well fitted inhibition curve with a large enough effect; inconclusive means small, poorly fitted or top-dose-only effect; inactive means no such curve, though single readings can be large or run the other way.

{"columns": ["MOLECULE", "Potency"],
 "data": [
  ["CCc1c(C(=O)C(N)=O)c2c(OCC(=O)O)cccc2n1Cc1ccccc1", "inactive"],
  ["O=c1[nH]c2ccc(Cl)cc2c(N[C@@H]2CN3CCC2CC3)c1-c1nc2ccccc2[nH]1", "590 nM (active)"],
  ["CN(C)[C@@H]1C(=O)C(C(N)=O)=C(O)[C@@]2(O)C(=O)C3=C(O)c4c(O)cccc4[C@@](C)(O)[C@H]3[C@H](O)[C@@H]12", "inactive"],
  ["C[C@]12CCC(=O)C(O)=C1CC[C@@H]1[C@@H]2CC[C@]2(C)C(=O)CC[C@@H]12", "inactive"],
  ["CN(C)NC(=O)CCC(=O)O", "inactive"],
  ["COc1cc(C(=O)N2CC[C@@H](O)[C@@H](N)C2)cc2nc(-c3cc4ccccc4n3CC3CC3)n(C)c12", "inactive"],
  ["COc1ccc(C(=O)N2CCCC2=O)cc1", "inactive"],
  ["CC(=O)OC[C@H]1O[C@@H]([S-])[C@H](OC(C)=O)[C@@H](OC(C)=O)[C@@H]1OC(C)=O.CC[PH+](CC)CC.[Au]", "833 nM (active)"],
  ["COC(=O)[C@@H](N)CCCN=C(N)N[N+](=O)[O-]", "inactive"],
  ["Cc1cccc(C)c1NC(=O)CN1CCCC1=O", "inactive"],
  ["Cc1[nH]nc2ccc(-c3cncc(OC[C@@H](N)Cc4c[nH]c5ccccc45)c3)cc12", "742 nM (active)"],
  ["CNCC(O)c1ccc(O)cc1 (centres undefined)", "inactive"],
  ["Cc1ncc(OC[C@@]2(c3cccc(F)c3)C[C@H]2C(=O)Nc2ccc(F)cn2)c(C)n1", "inactive"],
  ["C[C@@H]1O[C@@H](O[C@@H]2C=C3CC[C@@H]4[C@H](CC[C@]5(C)[C@@H](c6ccc(=O)oc6)CC[C@]45O)[C@@]3(C)CC2)[C@H](O)[C@H](O)[C@H]1O", "14.8 nM (active)"],
  ["O=C(N[C@H]1CN2CCC1CC2)c1ccc(Cl)cc1", "inactive"],
  ["O=C(NCCCNc1nc(Nc2ccc(N3CCOCC3)cc2)ncc1C1CC1)C1CCC1", "13200 nM (active)"],
  ["CC1(C)CC[C@]2(NC(=O)C(C)(F)F)CC[C@]3(C)[C@H](C(=O)C=C4[C@@]5(C)C=C(C#N)C(=O)C(C)(C)[C@@H]5CC[C@]43C)[C@@H]2C1", "1660 nM (active)"],
  ["COC1=C[C@@H]2[C@@H]3Cc4ccc(OC)c(O)c4[C@]2(CCN3C)CC1=O", "inactive"],
  ["C[C@H]1CCC/C=C/C2C[C@H](O)C[C@H]2[C@H](O)/C=C/C(=O)O1 (some centres undefined)", "296 nM (active)"]
]}

----------
- ASSAY_NOTES: BET inhibitor-based combinations targeting novel dependencies in MECOM-rearranged (r) AML: AML-191 cell line (AID 2202236; further: nearly all actives have a fitted effect of over 35% in size)
- MEASUREMENT_PARAMETERS: AML-191 viability, CellTiter-Glo luminescence, 48 h; series mostly up to 46 µM
- Description: Ecotropic viral insertion site 1 (EVI1) is located on chromosome 3q26.2 as part of the MECOM (MDS and EVI1 complex) locus. […] A collection of 2480 mechanistically annotated dugs (MIPE v5.0) was used to screen four 3q26.2 rearranged AML cell lines and three non-3q26.2 rearranged AML cell lines. […] Cell viability was determined by luminescence based, Cell Titer Glo assay (Promega). […] Luminescence readings were taken using a Viewlux (PerkinElmer) with a 2 s exposure time per plate. […]
Results filed as inconclusive are left out. The source made the active and inactive calls. Calls follow the shape of the dose curve; as a rule, active = well fitted inhibition curve with a large enough effect; inconclusive = small, poorly fitted or top-dose-only effect; inactive = flat fitted curve, though single readings scatter.
Possible outcomes: label 1 (active), label 0 (inactive)

{"columns": ["MOLECULE", "CLASS_NAME"],
 "data": [
  ["COC(=O)[C@]12CCC(C)(C)C[C@H]1[C@H]1C(=O)C=C3[C@@]4(C)C=C(C#N)C(=O)C(C)(C)[C@@H]4CC[C@@]3(C)[C@]1(C)CC2", "label 1"],
  ["C[C@@]12OC(=O)[C@]1([C@@H](O)[C@@H]1C=CCCC1)NC(=O)[C@@H]2CCCl", "label 1"],
  ["C[C@H](Nc1ncnc2nc[nH]c12)c1nc2ccc(F)cc2c(=O)n1-c1ccccc1", "label 1"],
  ["CNCC(O)c1ccc(O)cc1 (centres undefined)", "label 0"],
  ["CCN1C[C@]2(OC(=O)c3ccccc3NC(C)=O)CC[C@H](OC)[C@@]34[C@H]5CC6[C@@H](OC)C[C@](O)(C(C[C@@H]23)[C@@H]14)[C@@]5(O)[C@@H]6OC", "label 0"],
  ["CN1C(=O)CCS(=O)(=O)C1c1ccc(Cl)cc1 (centres undefined)", "label 0"],
  ["COc1cccc2c1C(=O)c1c(O)c3c(c(O)c1C2=O)C[C@@](O)(C(=O)CO)CC3OC1CC(N2CCOC(OC)C2)C(O)C(C)O1 (some centres undefined)", "label 1"],
  ["CC1(C)CC(O)CC(C)(C)N1O", "label 0"],
  ["CC(C)CC(N(C)C)C1(c2ccc(Cl)cc2)CCC1 (centres undefined)", "label 0"]
]}

----------
- TARGET_OF_ASSAY: Cellular tumor antigen p53 (Homo sapiens) (UniProt P04637)
- Sequence (P04637 whole entry, looked up): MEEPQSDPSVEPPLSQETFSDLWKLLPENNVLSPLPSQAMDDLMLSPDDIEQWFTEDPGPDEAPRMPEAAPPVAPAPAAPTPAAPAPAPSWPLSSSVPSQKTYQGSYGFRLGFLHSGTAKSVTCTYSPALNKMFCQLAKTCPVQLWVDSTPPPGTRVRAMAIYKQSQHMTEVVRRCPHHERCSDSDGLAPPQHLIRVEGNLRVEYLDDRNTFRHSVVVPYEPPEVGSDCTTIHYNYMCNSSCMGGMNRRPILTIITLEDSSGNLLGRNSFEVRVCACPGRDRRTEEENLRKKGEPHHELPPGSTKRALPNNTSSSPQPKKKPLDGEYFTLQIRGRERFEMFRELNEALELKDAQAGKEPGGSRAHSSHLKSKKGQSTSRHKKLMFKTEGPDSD
- ASSAY_NOTES: Primary qHTS for small molecule compounds that upregulate eGFP-tagged delta133p53alpha (in N-terminal) cells. (AID 2060322);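 further: cells pre-induced with doxycycline then dosed without doxycycline; 0% = DMSO vehicle and 100% = reference activator; nearly all actives have a fitted effect of over 75% in size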
- MEASUREMENT_PARAMETERS: NCI-H358 eGFP-delta133p53alpha fluorescence, 24 h; active compounds read high
Records with an inconclusive call do not appear.
activation: recorded values

{"columns": ["MOLECULE", "UNIT_SYMBOL", "activation"],
 "data": [
  ["CNCCc1c[nH]c2ccc(O)cc12", "%", -26.4],
  ["C=CCN1CC[C@]23c4c5ccc(O)c4O[C@H]2[C@@H](O)CC[C@@]3(O)[C@H]1C5", "%", 4.33],
  ["COCC(C(=O)OC1CC2CCC(C1)N2C)c1ccccc1 (configuration not stated)", "%", 4.33],
  ["COc1cc2c(cc1OC)[C@@]13CCN4CC5=CCO[C@H]6CC(=O)N2[C@H]1[C@H]6[C@H]5C[C@H]43", "%", -22.1],
  ["COc1cc(C(O)CN)ccc1O (configuration not stated)", "%", -24.3],
  ["O=C1CCC[C@@H]2[C@H]3CCCN4CCC[C@@H](CN12)[C@@H]34", "%", 30.7],
  ["CC(C)NCC(O)c1ccc(N)c(C#N)c1 (configuration not stated)", "%", 1.69],
  ["OCc1nnc2n1-c1ccc(Cl)cc1C(c1ccccc1Cl)=NC2", "%", -3.67],
  ["COCC1OC(=O)c2coc3c2C1(C)C1=C(C3=O)C2CCC(=O)C2(C)CC1O (configuration not stated)", "%", -7.63],
  ["NNC(=O)c1ccc(O)cc1", "%", -20.3],
  ["c1ccc([C@@H]2C[C@H]2NC2CCNCC2)cc1", "%", 13.8],
  ["CC(C)[N+](C)(CCC(C(N)=O)(c1ccccc1)c1ccccc1)C(C)C", "%", 27.7],
  ["Cc1cc(O)ccc1Cl", "%", -17.5],
  ["COc1ccc2c3c4n(c2c1)[C@@H](C=C(C)C)OOC(C)(C)C[C@@H]4N1C(=O)[C@@H]2CCCN2C(=O)[C@]1(O)[C@H]3OCC=C(C)C", "%", 15.3],
  ["c1ccc(C2(c3ccccc3)CC2C2=NCCN2)cc1 (configuration not stated)", "%", -13.2],
  ["C/C=C(\\C)C(=O)OC1C2C3(C)CCC(OC4CC(OC)C(OC5OC(C)C(O)C(OC)C5O)C(C)O4)CC3CCC23OC32CCC(C(C)=O)C2(C)C1OC(=O)/C(C)=C/C (configuration not stated)", "%", 12.5],
  ["C[C@](O)(COc1ccc(C#N)cc1)C(=O)Nc1ccc(C#N)c(C(F)(F)F)c1", "%", -20],
  ["CC(=CCCC1=CCC(C2=CC(=O)OC2O)OC1O)CCC1=C(C)CCCC1(C)C (configuration not stated)", "%", 16.4],
  ["CC(=O)Nc1cc([As](=O)(O)O)ccc1O", "%", -10.9],
  ["CCC(=O)OC1CCC2C3CCC4=CC(=O)CC[C@@]4(C)C3CC[C@]12C (some centres not stated)", "%", 14.6],
  ["CN(C)CCc1c[nH]c2cccc(OP(=O)(O)O)c12", "%", -1.69],
  ["CC(C)(C)NCC(O)c1cc(Cl)c(N)c(Cl)c1 (configuration not stated)", "%", -6.21]
]}
